Tested on: human breast MCF-7 cancer cell line
PROCEDURE_TEXT: In vitro cytotoxic screening (MTT assay), MCF-7
Type: cell-based
CONDITION_SUMMARY: 100 µM; average ± standard deviation
PROPERTY_LABEL: Percentage cytotoxicity on MCF-7 (%)
Just the number in %, nothing appended.

Query string: For the molecule Cc1nn2c(=O)c3c4c(sc3nc2[nH]1)CCC4 , give its measured Percentage cytotoxicity on MCF-7 value.
Result string: 18.9

Query string: Quickly give me recorded Percentage cytotoxicity on MCF-7 for CC(=O)C/C(C)=N/n1c(N[C@@H]2O[C@H](COC(C)=O)[C@@H](OC(C)=O)[C@H](OC(C)=O)[C@H]2OC(C)=O)nc2sc3c(c2c1=O)CCC3
Result string: 19.7

Query string: Tell me Percentage cytotoxicity on MCF-7 reported for CC(=O)OC[C@H]1O[C@@H](n2cnn3c(=O)c4c5c(sc4nc23)CCC5)[C@H](OC(C)=O)[C@@H](OC(C)=O)[C@@H]1OC(C)=O
Result string: 29.2

Query string: Query Percentage cytotoxicity on MCF-7 for O=c1c2c3c(sc2nc2[nH]cnn12)CCC3
Result string: 34.8

---

Test system: human breast MCF-7 cancer cell line
PROCEDURE_TEXT: In vitro cytotoxic screening (MTT assay), MCF-7
Type: cell-based
CONDITION_SUMMARY: 100 µM; average ± standard deviation
Lab note: compare Percentage cytotoxicity on MCF-7 with 30%, writing 1.0 if less and 0.0 if equal or more.

Query string: Just wondering, is Percentage cytotoxicity on MCF-7 of CCOC(=O)Cc1nn2c(=O)c3c4c(sc3nc2[nH]1)CCC4 [Compound 6] below 30%?
Result string: 1.0

Query string: Here's an entry: O=c1c2c3c(sc2nc2[nH]c(=S)[nH]n12)CCC3 [Compound 9] . Is its Percentage cytotoxicity on MCF-7 below 30%?
Result string: 0.0

Query string: For O=c1c2c3c(sc2nc2[nH]c(-c4ccc(Cl)cc4)nn12)CCC3 [Compound 10a] , is the recorded Percentage cytotoxicity on MCF-7 below the cut-off of 30%?
Result string: 0.0

Query string: Hello, I'm reviewing records and need to know if Percentage cytotoxicity on MCF-7 of COc1ccc(-c2nn3c(=O)c4c5c(sc4nc3[nH]2)CCC5)cc1 [Compound 10d] is below 30%. Could you check?
Result string: 0.0

Query string: Field: below-cutoff. Rule: recorded Percentage cytotoxicity on MCF-7 strictly less than 30%. Subject: CC(=O)C/C(C)=N/n1c(N)nc2sc3c(c2c1=O)CCC3 [Compound 8]
Result string: 0.0

Query string: Determine if O=c1c2c3c(sc2nc2[nH]c(-c4ccc([N+](=O)[O-])cc4)nn12)CCC3 [Compound 10c] shows Percentage cytotoxicity on MCF-7 strictly lower than 30%.
Result string: 0.0

Query string: Find out if reported Percentage cytotoxicity on MCF-7 for O=c1c2c3c(sc2nc2nc([C@H](O)[C@@H](O)[C@@H](O)[C@H](O)CO)[nH]n12)CCC3 [Compound 11b] is less than 30%
Result string: 0.0

Query string: Does O=c1c2c3c(sc2nc2[nH]c(-c4ccc(Br)cc4)nn12)CCC3 [Compound 10b] have Percentage cytotoxicity on MCF-7 strictly under 30%?
Result string: 0.0

Query string: Decide: Percentage cytotoxicity on MCF-7 of O=c1c2c3c(sc2nc2nc([C@@H](O)[C@H](O)[C@H](O)CO)[nH]n12)CCC3 [Compound 11d] strictly below 30%?
Result string: 0.0

Query string: Record O=c1c2c3c(sc2nc2nc([C@@H](O)[C@@H](O)[C@H](O)[C@H](O)CO)[nH]n12)CCC3 [Compound 11c] : is its Percentage cytotoxicity on MCF-7 strictly below 30%?
Result string: 0.0

Query string: Strictly below 30%: is that where Percentage cytotoxicity on MCF-7 of O=c1c2c3c(sc2nc2[nH]c(-c4c5ccccc5cc5ccccc45)nn12)CCC3 [Compound 10e] sits?
Result string: 0.0

Query string: Please determine if CC(=O)OC[C@@H](OC(C)=O)[C@@H](OC(C)=O)[C@H](OC(C)=O)c1nc2nc3sc4c(c3c(=O)n2[nH]1)CCC4 [Compound 12d] is below 30% in terms of Percentage cytotoxicity on MCF-7.
Result string: 1.0

Source listed as paper PMC10934261.
